These data points were gathered from patent US20060069132A1.

Tested on: common (oilseed) sunflower
Assay: Test C pre-/postemergence herbicide test
Type: in vivo, Helianthus annuus
Conditions: 125 g ai/ha; scale 0 (no effect) to 100 (complete control); visual, 12 to 14 days; preemergence
Catalogue of Plant response rating, Sunflower readings, one per entry.
observable: Plant response rating, Sunflower

| mol | observable | test result |
| --- | --- | --- |
| CCn1nc(C(C)(C)C)cc1C(=O)Nc1cc(C#N)ccc1F | Plant response rating, Sunflower | 0 |
| CCCCn1nc(C(C)(C)C)cc1C(=O)Nc1cccc(C(=O)NCC)c1 | Plant response rating, Sunflower | 0 |
| CC(=NO)c1cccc(NC(=O)c2cc(C(C)(C)C)nn2C)c1 | Plant response rating, Sunflower | 20 |
| CCn1nc(C(C)(C)C)cc1C(=O)Nc1cccc(C#N)c1 | Plant response rating, Sunflower | 10 |
| CCNC(=O)c1cc(C)nc(NC(=O)c2cc(C(C)(C)C)nn2CC)c1 | Plant response rating, Sunflower | 0 |
